# Subject Of Test: Recombinant GMPPNP-loaded KRAS G12C (KRAS-G12C(ON)) / GST-RAF1 RBD (Homo sapiens, UniProt P01116, G12C)
# Sequence (P01116 1-188 isoform P01116-2 G12C): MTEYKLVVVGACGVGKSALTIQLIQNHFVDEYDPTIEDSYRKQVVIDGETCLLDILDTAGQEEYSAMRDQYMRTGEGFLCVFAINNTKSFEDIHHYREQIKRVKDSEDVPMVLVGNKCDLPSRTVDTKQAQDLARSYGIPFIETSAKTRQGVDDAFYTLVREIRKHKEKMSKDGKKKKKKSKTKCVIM
# Protocol Notes: KRAS G12C RAF Disruption Assay (HTRF)
# Assay type: biochemical
# Study Conditions: GMPPNP-loaded KRAS G12C 5 nM, compound 20 min at room temperature, GST-RAF1 RBD 9 nM, HTRF signal; read-out: KRASG12C RAF Disruption Assay (IC50)
Provide the reported pIC50 of each item.
// pIC50: -log10(molar conc.)

Asked: Sample `Cc1cccnc1/C=C(\F)C(=O)N1CCN(c2nc(OC[C@@H]3CCCN3C)nc3c2CCN(c2cccc4cccc(Cl)c24)C3)C[C@@H]1CC#N` — what was its pIC50?
Given back: 6.11

Asked: Subsequent entry: `C[C@H]1CN(C(=O)/C(F)=C/c2nccs2)CCN1c1nc(OC[C@@H]2CCCN2C)nc2c1CCN(c1cccc3cccc(Cl)c13)C2`
Given back: 5.12

Asked: Subsequent entry: `CN1CCC[C@H]1COc1nc2c(c(N3CCN(C(=O)/C(F)=C/c4nccn4C)[C@@H](CC#N)C3)n1)CCN(c1cccc3cccc(Cl)c13)C2`
Given back: 4.62

###

Provide the reported pIC50 of each item.
# Subject Of Test: Recombinant GMPPNP-loaded KRAS G12C (KRAS-G12C(ON)) / GST-RAF1 RBD (Homo sapiens, UniProt P01116, G12C)
# Protocol Notes: KRAS G12C RAF Disruption Assay (HTRF)
# Study Conditions: GMPPNP-loaded KRAS G12C 5 nM, compound 20 min at room temperature, GST-RAF1 RBD 9 nM, HTRF signal; read-out: KRASG12C RAF Disruption Assay (IC50)
// pIC50: -log10(molar conc.)

Asked: Sample `Cc1ccnc(/C=C(\F)C(=O)N2CCN(c3nc(OC[C@@H]4CCCN4C)nc4c3CCN(c3cccc5cccc(Cl)c35)C4)C[C@@H]2CC#N)c1` — what was its pIC50?
Given back: 6.89

Asked: Subsequent entry: `CN1CCC[C@H]1COc1nc2c(c(N3CCN(C(=O)/C(F)=C/c4cn(C)nn4)[C@@H](CC#N)C3)n1)CCN(c1cccc3cccc(Cl)c13)C2`
Given back: 4.03

Asked: Subsequent entry: CN1CCC[C@H]1COc1nc2c(c(N3CCN(C(=O)C(F)=Cc4ccns4)[C@@H](CC#N)C3)n1)CCN(c1cccc3cccc(Cl)c13)C2 (racemic)
Given back: 4.24

###

# Subject Of Test: Recombinant GMPPNP-loaded KRAS G12C (KRAS-G12C(ON)) / GST-RAF1 RBD (Homo sapiens, UniProt P01116, G12C)
# Protocol Notes: KRAS G12C RAF Disruption Assay (HTRF)
# Format: biochemical
# Study Conditions: GMPPNP-loaded KRAS G12C 5 nM, compound 20 min at room temperature, GST-RAF1 RBD 9 nM, HTRF signal; read-out: KRASG12C RAF Disruption Assay (IC50)
# Method: Recombinant GST-RAF1 RBD (9 nM) was added, and the reaction mixture was incubated for 20 minutes. SA-Tb (0.25 nM) was added, and the reaction mixture was incubated for 3 hours. HTRF signal was measured (PerkinElmer Envision), the signal ratio (λem 520/λem 495) was calculated, and IC50 values were calculated from the dose-response curve.
pIC50: −log10 of the molar value.
Categorized via pIC50: range A = under 6, range B = from 6 up to 7, range C = 7 and over

Asked: Determine which band this molecule sits in: `Cc1ccc(/C=C(\F)C(=O)N2CCN(c3nc(OC[C@@H]4CCCN4C)nc4c3CCN(c3cccc5cccc(Cl)c35)C4)C[C@@H]2CC#N)nc1`
Given back: range B

Asked: Subsequent entry: `CN1CCC[C@H]1COc1nc2c(c(N3CCN(C(=O)/C(F)=C/c4ccon4)[C@@H](CC#N)C3)n1)CCN(c1cccc3cccc(Cl)c13)C2`
Given back: range A

Asked: Subsequent entry: `N#CC[C@H]1CN(c2nc(OC[C@@]34CCCN3C[C@H](F)C4)nc3c2CCN(c2cccc4cccc(Cl)c24)C3)CCN1C(=O)/C(F)=C/c1nccs1`
Given back: range C

Asked: Subsequent entry: `CN1CCC[C@H]1COc1nc2c(c(N3CCN(C(=O)/C(F)=C/c4ccno4)[C@@H](CC#N)C3)n1)CCN(c1cccc3cccc(Cl)c13)C2`
Given back: range A

Asked: Subsequent entry: `CN1CCC[C@H]1COc1nc2c(c(N3CCN(C(=O)/C(F)=C/c4cccnc4)[C@@H](CC#N)C3)n1)CCN(c1cccc3cccc(Cl)c13)C2`
Given back: range A

Asked: Subsequent entry: `CN1CCC[C@H]1COc1nc2c(c(N3CCN(C(=O)/C(F)=C/c4ccncc4)[C@@H](CC#N)C3)n1)CCN(c1cccc3cccc(Cl)c13)C2`
Given back: range B
